molecular target: human Cav3.2 (Homo sapiens (Human)); experiment: T-type calcium channel inhibitory activity, whole-cell patch-clamp with HEK293 cell; settings: dose-reactive test; read-out: Cav3.2 IC50 (parenthesized)
Sequence (O95180 whole entry): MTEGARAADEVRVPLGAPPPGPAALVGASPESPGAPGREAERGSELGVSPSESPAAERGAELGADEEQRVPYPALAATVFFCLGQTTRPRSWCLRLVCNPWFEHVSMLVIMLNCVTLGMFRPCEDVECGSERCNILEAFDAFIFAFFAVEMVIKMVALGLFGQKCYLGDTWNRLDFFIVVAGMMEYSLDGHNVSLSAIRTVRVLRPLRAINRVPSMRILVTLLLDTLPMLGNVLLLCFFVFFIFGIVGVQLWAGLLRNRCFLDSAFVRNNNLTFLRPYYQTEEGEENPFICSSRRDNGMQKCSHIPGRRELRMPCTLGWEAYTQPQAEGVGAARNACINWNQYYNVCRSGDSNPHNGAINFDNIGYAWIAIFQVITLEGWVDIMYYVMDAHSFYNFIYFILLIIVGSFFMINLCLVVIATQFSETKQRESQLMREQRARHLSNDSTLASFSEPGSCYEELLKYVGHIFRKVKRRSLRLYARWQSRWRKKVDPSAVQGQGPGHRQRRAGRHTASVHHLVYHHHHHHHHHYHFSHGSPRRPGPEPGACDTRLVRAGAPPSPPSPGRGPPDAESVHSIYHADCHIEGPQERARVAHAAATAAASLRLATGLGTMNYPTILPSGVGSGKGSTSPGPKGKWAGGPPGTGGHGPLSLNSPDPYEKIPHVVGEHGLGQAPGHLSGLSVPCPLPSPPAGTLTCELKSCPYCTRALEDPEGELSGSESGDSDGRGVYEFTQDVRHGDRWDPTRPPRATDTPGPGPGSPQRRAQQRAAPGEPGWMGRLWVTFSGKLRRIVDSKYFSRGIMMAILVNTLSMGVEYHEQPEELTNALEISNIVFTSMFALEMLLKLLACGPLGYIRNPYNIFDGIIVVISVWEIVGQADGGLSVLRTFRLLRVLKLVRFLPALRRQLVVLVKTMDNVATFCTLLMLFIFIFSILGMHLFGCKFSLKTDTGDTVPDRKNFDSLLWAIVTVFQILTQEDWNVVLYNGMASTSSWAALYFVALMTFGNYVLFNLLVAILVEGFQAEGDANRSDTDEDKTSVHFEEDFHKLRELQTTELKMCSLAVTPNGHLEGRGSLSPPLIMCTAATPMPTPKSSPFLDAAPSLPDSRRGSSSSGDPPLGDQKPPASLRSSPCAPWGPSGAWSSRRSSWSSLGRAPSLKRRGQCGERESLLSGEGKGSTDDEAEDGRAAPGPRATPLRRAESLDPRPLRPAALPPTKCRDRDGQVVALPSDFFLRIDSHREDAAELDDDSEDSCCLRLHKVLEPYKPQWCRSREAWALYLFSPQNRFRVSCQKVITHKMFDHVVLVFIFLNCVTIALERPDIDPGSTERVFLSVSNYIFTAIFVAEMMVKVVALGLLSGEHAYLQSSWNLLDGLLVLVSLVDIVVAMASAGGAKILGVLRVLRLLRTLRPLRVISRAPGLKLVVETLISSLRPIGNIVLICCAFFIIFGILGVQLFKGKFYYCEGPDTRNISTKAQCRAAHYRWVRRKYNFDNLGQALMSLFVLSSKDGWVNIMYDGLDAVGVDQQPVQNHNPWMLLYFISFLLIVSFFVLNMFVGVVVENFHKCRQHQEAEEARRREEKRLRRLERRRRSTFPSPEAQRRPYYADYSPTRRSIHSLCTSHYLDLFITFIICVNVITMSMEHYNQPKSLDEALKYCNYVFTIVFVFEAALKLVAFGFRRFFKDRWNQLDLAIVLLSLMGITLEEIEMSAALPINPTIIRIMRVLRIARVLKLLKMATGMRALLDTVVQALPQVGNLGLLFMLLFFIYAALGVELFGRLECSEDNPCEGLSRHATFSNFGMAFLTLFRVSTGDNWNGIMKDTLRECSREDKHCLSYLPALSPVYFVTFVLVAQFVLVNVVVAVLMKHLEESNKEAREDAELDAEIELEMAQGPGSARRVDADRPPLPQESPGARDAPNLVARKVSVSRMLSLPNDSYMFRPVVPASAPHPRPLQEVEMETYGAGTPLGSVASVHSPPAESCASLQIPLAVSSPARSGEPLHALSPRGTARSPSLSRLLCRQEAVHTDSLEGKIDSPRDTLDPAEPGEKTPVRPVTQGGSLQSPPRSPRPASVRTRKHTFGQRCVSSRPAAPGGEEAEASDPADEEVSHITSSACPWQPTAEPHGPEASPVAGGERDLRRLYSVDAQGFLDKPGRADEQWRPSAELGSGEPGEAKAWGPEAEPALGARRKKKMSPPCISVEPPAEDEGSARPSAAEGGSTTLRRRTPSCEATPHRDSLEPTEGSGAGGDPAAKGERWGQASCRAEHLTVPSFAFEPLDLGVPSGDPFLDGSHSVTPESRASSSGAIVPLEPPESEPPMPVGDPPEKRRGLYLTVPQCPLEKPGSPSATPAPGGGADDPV
Hi there, I'd appreciate the recorded pIC50 for every entry that follows.
Remember, pIC50 is on a log scale: it is -log10 of the molar concentration.

Need pIC50 of C[C@H](c1noc2ccccc12)S(N)(=O)=O , thanks.
3.15

Need pIC50 of NS(=O)(=O)C(F)c1noc2ccccc12 (centres unmarked) , thanks.
3.44

Need pIC50 of CC(F)(c1noc2ccccc12)S(N)(=O)=O (centres unmarked) , thanks.
3.50

Need pIC50 of C[C@@H](c1noc2ccccc12)S(N)(=O)=O , thanks.
3.08

Need pIC50 of CC(c1noc2ccccc12)S(N)(=O)=O (centres unmarked) , thanks.
3.07

----------
target: human Cav3.3 (Homo sapiens (Human), UniProt Q9P0X4); assay: T-type calcium channel inhibitory activity, whole-cell patch-clamp with HEK293 cell; conditions: dose-reactive test; read-out: Cav3.3 IC50 (parenthesized)
Sequence (Q9P0X4 whole entry): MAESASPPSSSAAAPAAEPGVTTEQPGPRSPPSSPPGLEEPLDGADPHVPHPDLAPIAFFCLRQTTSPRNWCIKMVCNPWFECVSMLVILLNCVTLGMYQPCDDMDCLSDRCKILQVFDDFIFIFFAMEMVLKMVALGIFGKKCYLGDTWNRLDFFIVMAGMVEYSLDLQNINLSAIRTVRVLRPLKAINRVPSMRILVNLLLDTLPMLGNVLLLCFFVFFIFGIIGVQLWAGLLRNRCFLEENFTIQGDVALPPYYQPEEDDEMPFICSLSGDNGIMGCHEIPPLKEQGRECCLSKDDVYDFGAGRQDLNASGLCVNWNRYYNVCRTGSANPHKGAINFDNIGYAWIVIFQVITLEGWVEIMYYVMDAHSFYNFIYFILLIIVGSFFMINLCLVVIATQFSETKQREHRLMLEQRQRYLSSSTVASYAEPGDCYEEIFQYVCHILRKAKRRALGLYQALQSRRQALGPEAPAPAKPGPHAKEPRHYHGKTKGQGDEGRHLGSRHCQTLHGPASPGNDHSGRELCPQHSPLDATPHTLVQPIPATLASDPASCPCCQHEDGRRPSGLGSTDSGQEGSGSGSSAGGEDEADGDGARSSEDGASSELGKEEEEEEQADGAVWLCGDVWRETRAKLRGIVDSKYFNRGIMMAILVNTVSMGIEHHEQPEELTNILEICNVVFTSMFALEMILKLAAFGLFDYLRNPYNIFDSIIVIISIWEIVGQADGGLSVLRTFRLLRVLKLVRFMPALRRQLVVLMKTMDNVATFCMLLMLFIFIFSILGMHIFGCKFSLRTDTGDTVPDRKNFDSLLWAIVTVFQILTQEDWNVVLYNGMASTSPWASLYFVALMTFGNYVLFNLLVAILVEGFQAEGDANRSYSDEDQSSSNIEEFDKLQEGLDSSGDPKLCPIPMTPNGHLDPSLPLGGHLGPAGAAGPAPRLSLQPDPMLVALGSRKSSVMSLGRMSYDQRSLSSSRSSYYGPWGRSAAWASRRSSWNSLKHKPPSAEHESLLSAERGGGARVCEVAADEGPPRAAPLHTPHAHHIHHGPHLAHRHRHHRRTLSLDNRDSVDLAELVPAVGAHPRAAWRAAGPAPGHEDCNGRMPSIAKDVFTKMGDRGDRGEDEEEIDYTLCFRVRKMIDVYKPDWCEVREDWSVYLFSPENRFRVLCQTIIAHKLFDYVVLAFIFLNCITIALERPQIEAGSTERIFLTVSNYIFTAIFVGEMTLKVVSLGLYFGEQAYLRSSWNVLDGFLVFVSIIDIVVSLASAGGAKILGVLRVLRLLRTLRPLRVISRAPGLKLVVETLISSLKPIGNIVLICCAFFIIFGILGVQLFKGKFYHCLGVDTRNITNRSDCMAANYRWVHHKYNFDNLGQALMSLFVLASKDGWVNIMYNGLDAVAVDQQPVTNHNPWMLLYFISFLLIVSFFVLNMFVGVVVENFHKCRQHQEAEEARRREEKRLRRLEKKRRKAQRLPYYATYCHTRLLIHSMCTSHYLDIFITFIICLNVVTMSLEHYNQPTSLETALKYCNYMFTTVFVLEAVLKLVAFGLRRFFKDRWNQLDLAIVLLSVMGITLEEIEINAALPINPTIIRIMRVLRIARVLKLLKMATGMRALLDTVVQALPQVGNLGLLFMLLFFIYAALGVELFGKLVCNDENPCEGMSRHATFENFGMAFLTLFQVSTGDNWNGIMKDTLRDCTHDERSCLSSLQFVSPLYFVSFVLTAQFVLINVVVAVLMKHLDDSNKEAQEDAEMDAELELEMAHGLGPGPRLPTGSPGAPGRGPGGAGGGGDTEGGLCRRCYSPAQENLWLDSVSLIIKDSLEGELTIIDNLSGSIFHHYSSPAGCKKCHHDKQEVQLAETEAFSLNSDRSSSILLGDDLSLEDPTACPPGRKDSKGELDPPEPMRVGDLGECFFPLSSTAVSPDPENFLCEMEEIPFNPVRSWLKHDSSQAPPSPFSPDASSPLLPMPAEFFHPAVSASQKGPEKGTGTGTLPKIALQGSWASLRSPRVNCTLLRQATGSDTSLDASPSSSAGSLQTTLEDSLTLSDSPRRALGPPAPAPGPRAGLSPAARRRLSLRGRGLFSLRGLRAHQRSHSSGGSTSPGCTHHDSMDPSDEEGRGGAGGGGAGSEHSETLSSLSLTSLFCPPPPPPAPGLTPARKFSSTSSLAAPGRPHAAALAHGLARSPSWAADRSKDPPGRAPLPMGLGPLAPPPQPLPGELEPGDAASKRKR
Threshold check on IC50: strictly below 700 µM is condition met; on or above 700 µM is condition not met.

Lab note: confirm whether the reported IC50 for this compound is below 700 µM, equality not counting. compound: CC(c1noc2ccccc12)S(N)(=O)=O (centres unmarked)
condition not met

Lab note: confirm whether the reported IC50 for this compound is below 700 µM, equality not counting. compound: C[C@H](c1noc2ccccc12)S(N)(=O)=O
condition not met

Lab note: confirm whether the reported IC50 for this compound is below 700 µM, equality not counting. compound: CC(F)(c1noc2ccccc12)S(N)(=O)=O (centres unmarked)
condition met

Lab note: confirm whether the reported IC50 for this compound is below 700 µM, equality not counting. compound: C[C@@H](c1noc2ccccc12)S(N)(=O)=O
condition not met

Lab note: confirm whether the reported IC50 for this compound is below 700 µM, equality not counting. compound: NS(=O)(=O)C(F)c1noc2ccccc12 (centres unmarked)
condition met

----------
Consider the following IC50 values measured on human CA-II (Homo sapiens (Human), UniProt P00918).
Just the number please, in µM, no unit attached.

Need IC50 of C[C@@H](c1noc2ccccc12)S(N)(=O)=O , thanks.
3.5

Need IC50 of CC(c1noc2ccccc12)S(N)(=O)=O (stereo not drawn) , thanks.
26.5

Need IC50 of CCCC(c1noc2ccccc12)S(N)(=O)=O (stereo not drawn) , thanks.
32.9

Need IC50 of NS(=O)(=O)C1(c2noc3ccccc23)CC1 , thanks.
5.2

Need IC50 of CC(C)(c1noc2ccccc12)S(N)(=O)=O , thanks.
79.2

Need IC50 of C[C@H](c1noc2ccccc12)S(N)(=O)=O , thanks.
18.2

----------
target: Rat striatum MAOB (Rattus norvegicus (Rat)); experiment: Activity for inhibiting monoamine oxidase B (MAOB); assay type: biochemical; details: [14C] β-PEA substrate; read-out: Rat striatum MAOB IC50
Sequence (P19643 whole entry): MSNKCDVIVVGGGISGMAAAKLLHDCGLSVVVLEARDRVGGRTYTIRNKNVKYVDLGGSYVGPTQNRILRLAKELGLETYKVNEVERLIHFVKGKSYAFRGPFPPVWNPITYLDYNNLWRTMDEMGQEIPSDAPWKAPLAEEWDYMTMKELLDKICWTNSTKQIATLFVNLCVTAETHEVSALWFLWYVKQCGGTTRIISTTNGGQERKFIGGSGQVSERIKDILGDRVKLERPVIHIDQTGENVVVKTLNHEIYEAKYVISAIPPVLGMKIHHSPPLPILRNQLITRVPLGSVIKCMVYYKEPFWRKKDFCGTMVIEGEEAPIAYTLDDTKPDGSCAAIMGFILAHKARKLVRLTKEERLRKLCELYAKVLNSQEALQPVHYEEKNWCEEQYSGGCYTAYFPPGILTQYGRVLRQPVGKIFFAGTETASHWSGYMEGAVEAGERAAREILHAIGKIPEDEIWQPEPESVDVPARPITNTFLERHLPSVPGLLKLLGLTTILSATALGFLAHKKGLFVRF
pIC50: −log10 of the molar value.
metric name: pIC50

Need pIC50 of NS(=O)(=O)C1(c2noc3ccccc23)CC1 [Example 5] , thanks.
< 3.22

Need pIC50 of CC(C)(c1noc2ccccc12)S(N)(=O)=O [Example 2] , thanks.
< 3.22

Need pIC50 of CC(F)(c1noc2ccccc12)S(N)(=O)=O (stereo not drawn) [Example 8] , thanks.
< 3.22

Need pIC50 of CC(c1noc2ccc(Cl)cc12)S(N)(=O)=O (stereo not drawn) [Example 12] , thanks.
3.82

Need pIC50 of CC(c1noc2ccc(F)cc12)S(N)(=O)=O (stereo not drawn) [Example 11] , thanks.
< 3.22

Need pIC50 of C[C@@H](c1noc2ccccc12)S(N)(=O)=O [Example 14] , thanks.
< 3.22

----------
biological target: UniProt:P19643; experiment: Activity for inhibiting monoamine oxidase B (MAOB); type: biochemical; conditions: Rat striatum MAOB IC50, [14C] β-PEA substrate
metric name: IC50 (nM)
Just the number please, in nM, no unit attached.

Need IC50 of C[C@H](NCc1ccc(OCc2cccc(F)c2)cc1)C(N)=O [safinamide, reference compound] , thanks.
193

----------
target: Rat striatum MAOB (Rattus norvegicus (Rat)); experiment: Activity for inhibiting monoamine oxidase B (MAOB); assay type: biochemical; conditions: [14C] β-PEA substrate; read-out: Rat striatum MAOB IC50
Hi there, I'd appreciate the recorded IC50 for every entry that follows.
Just the number please, in µM, no unit attached.

Need IC50 of CC(c1noc2ccccc12)S(N)(=O)=O (stereo not shown) [Example 1] , thanks.
349

Need IC50 of NS(=O)(=O)C(F)(F)c1noc2ccccc12 [Example 4] , thanks.
389

Need IC50 of NS(=O)(=O)C(F)c1noc2ccccc12 (stereo not shown) [Example 3] , thanks.
101

----------
target: human Cav3.3 (Homo sapiens (Human)); test: T-type calcium channel inhibitory activity, whole-cell patch-clamp with HEK293 cell; assay type: cell-based; conditions: HEK293, 600 μmol/L; read-out: Cav3.3 % inhibitory rate
metric name: inhibition at 600 µM (%)
Just the number please, in %, no unit attached.

Observed inhibition at 600 µM on human Cav3.3 (Homo sapiens (Human)) for C[C@@H](c1noc2ccccc12)S(N)(=O)=O [Example 14] , please.
31.8

Observed inhibition at 600 µM on human Cav3.3 (Homo sapiens (Human)) for CCC(c1noc2ccccc12)S(N)(=O)=O (centres unmarked) [Example 6] , please.
72.9

Observed inhibition at 600 µM on human Cav3.3 (Homo sapiens (Human)) for CC(F)(c1noc2ccccc12)S(N)(=O)=O (centres unmarked) [Example 8] , please.
73

Observed inhibition at 600 µM on human Cav3.3 (Homo sapiens (Human)) for CC(c1noc2ccc(F)cc12)S(N)(=O)=O (centres unmarked) [Example 11] , please.
54.3

Observed inhibition at 600 µM on human Cav3.3 (Homo sapiens (Human)) for NS(=O)(=O)C1(c2noc3ccccc23)CC1 [Example 5] , please.
55.6

Observed inhibition at 600 µM on human Cav3.3 (Homo sapiens (Human)) for CC(C)(c1noc2ccccc12)S(N)(=O)=O [Example 2] , please.
70

Observed inhibition at 600 µM on human Cav3.3 (Homo sapiens (Human)) for CC(c1noc2ccc(Cl)cc12)S(N)(=O)=O (centres unmarked) [Example 12] , please.
93

Observed inhibition at 600 µM on human Cav3.3 (Homo sapiens (Human)) for C[C@H](c1noc2ccccc12)S(N)(=O)=O [Example 13] , please.
39.9

Observed inhibition at 600 µM on human Cav3.3 (Homo sapiens (Human)) for COc1ccc2onc(C(C)S(N)(=O)=O)c2c1 (centres unmarked) [Example 10] , please.
69.7

Observed inhibition at 600 µM on human Cav3.3 (Homo sapiens (Human)) for NS(=O)(=O)C(F)c1noc2ccccc12 (centres unmarked) [Example 3] , please.
61

Observed inhibition at 600 µM on human Cav3.3 (Homo sapiens (Human)) for CC(C)C(c1noc2ccccc12)S(N)(=O)=O (centres unmarked) [Example 9] , please.
94.3
